- study target: porcine pancreatic α-amylase (Sus scrofa, UniProt P00690)
- Construct: purchased Sigma-Aldrich Co. (St. Louis, MO, USA)
- Sequence (P00690 16-511): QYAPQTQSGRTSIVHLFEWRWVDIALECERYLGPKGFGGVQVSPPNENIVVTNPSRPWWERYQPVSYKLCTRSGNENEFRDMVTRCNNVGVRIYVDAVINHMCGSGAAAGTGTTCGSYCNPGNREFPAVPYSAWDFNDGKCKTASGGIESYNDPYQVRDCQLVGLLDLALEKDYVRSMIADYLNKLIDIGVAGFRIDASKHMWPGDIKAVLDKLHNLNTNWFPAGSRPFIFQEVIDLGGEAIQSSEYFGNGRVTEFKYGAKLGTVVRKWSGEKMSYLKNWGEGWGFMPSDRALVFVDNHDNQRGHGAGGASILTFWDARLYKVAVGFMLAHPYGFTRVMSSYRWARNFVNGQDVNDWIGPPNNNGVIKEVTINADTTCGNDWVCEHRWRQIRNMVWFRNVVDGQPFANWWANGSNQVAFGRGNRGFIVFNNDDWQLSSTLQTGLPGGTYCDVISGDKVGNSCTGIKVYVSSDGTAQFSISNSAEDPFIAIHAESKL
- experimental details: α-amylase inhibitory effect (starch, dinitrosalicylic acid, 540 nm)
- Format: biochemical
- conditions used: converted into acarbose equivalents
Answer each item with its documented Inhibitory effects α-amylase (acarbose equivalents).
One number for each entry, in μg acarbose/μg.

Below, 5 compounds whose answers are already recorded.
O=c1cc(-c2ccccc2)oc2cc(O)cc(O)c12 : 1.51
O=c1cc(-c2ccccc2)oc2cc(O)c(O)c(O)c12 : 2.07
O=C(O)[C@H]1O[C@@H](Oc2cc3oc(-c4ccc(O)cc4)cc(=O)c3c(O)c2O)[C@H](O)[C@@H](O)[C@@H]1O : 1.84
O=C(O)[C@H]1O[C@@H](Oc2cc(O)c3c(=O)cc(-c4ccccc4)oc3c2)[C@H](O)[C@@H](O)[C@@H]1O [Chrysin-7-O-G, chrysin-7-O-glucuronide] : 0.69
O=C(O)[C@H]1O[C@@H](Oc2cc(O)c3c(=O)cc(-c4ccc(O)cc4)oc3c2)[C@H](O)[C@@H](O)[C@@H]1O [Apigenin-7-O-G, apigenin-7-O-glucuronide] : 1.04

# get_value(readout='Inhibitory effects α-amylase (acarbose equivalents)', item= "O=C(O)[C@H]1O[C@@H](Oc2cc3oc(-c4ccccc4)cc(=O)c3c(O)c2O)[C@H](O)[C@@H](O)[C@@H]1O" ) 1.03
